# Method: Effective permeability in PBS at pH 7.4 incubated for 5 hrs by PAMPA based UPLC-MS/MS analysis
# Assay type: ADME

# Compound, Papp at 5 h
data = [
    ("O=C(Nc1ccccc1)Nc1cccc(Nc2nccc(Nc3ccc4cc[nH]c4c3)n2)c1", "10 ×10⁻⁶ cm/s"),
]
